Cited source for all entries: ChEMBL document CHEMBL1158509

- Target under test: Prostaglandin D2 receptor 2 (Homo sapiens)
- Experiment summary: Displacement of[3H]PGD2 from human CRTH2 receptor expressed in […] cells
- Assay type: cell-based
Field: pIC50. Provide a value for each of the molecules that follow.
Reminder that pIC50 is minus the log10 of a molar concentration.

According to the records, this molecule O=C(O)Cc1sc(C(c2ccc(F)cc2)c2ccc(F)cc2)nc1-c1cc[nH]c(=O)c1 displays pIC50 of 7.17

According to the records, this molecule O=C(O)Cc1sc(C(c2ccc(F)cc2)c2ccc(F)cc2)nc1-c1cn[nH]c1 displays pIC50 of 7.80

According to the records, this molecule O=C(O)Cc1sc(C(c2ccc(F)cc2)c2ccc(F)cc2)nc1-c1cc(F)nc(F)c1 displays pIC50 of 8.27

According to the records, this molecule O=C(O)Cc1sc(C(c2ccc(F)cc2)c2ccc(F)cc2)nc1-c1cncc(F)c1 displays pIC50 of 7.15

According to the records, this molecule O=C(O)Cc1sc(C(c2ccc(F)cc2)c2ccc(F)cc2)nc1-c1ccc(F)cc1 displays pIC50 of 8.12

According to the records, this molecule O=C(O)Cc1sc(C(c2ccc(F)cc2)c2ccc(F)cc2)nc1-c1ccncc1 displays pIC50 of 8.28

According to the records, this molecule NS(=O)(=O)c1ccc(-c2nc(C(c3ccc(F)cc3)c3ccc(F)cc3)sc2CC(=O)O)cc1 displays pIC50 of 5.82

According to the records, this molecule O=C(O)Cc1sc(C(c2ccccc2)c2ccc(F)c(F)c2)nc1-c1ccc(F)cc1 (stereo not given) displays pIC50 of 8.00

According to the records, this molecule O=C(O)Cc1sc(C(c2ccc(F)cc2)c2ccc(F)cc2)nc1-c1ccc(F)c(F)c1 displays pIC50 of 8.46

According to the records, this molecule O=C(O)Cc1sc(CC(c2ccccc2)c2ccccc2)nc1-c1ccc(Cl)cc1 displays pIC50 of 6.47

====

- Target under test: Prostaglandin D2 receptor 2 (Homo sapiens)
- Experiment summary: Antagonist activity at human CRTH2 receptor expressed in […] cells assessed as inhibition of beta arrestin translocation by bioluminescence resonance energy transfer assay relative to control
- Format: functional, cell-based
Measured attribute: Efficacy (%)
Entry rule: numbers only, all in %.

# value of Efficacy, Prostaglandin D2 receptor 2 (Homo sapiens), item O=C(O)Cc1sc(-c2ccco2)nc1-c1ccc(Cl)cc1 = 50

# value of Efficacy, Prostaglandin D2 receptor 2 (Homo sapiens), item O=C(O)Cc1sc(C(c2ccccc2)c2ccccn2)nc1-c1ccc(Cl)cc1 (configuration not stated) = 55

# value of Efficacy, Prostaglandin D2 receptor 2 (Homo sapiens), item O=C(O)Cc1sc(C(c2ccc(F)cc2)c2ccc(F)cc2)nc1-c1ccnc(N2CCC2)c1 = 80

# value of Efficacy, Prostaglandin D2 receptor 2 (Homo sapiens), item Nc1ccc(-c2nc(C(c3ccc(F)cc3)c3ccc(F)cc3)sc2CC(=O)O)cn1 = 60

# value of Efficacy, Prostaglandin D2 receptor 2 (Homo sapiens), item O=C(O)Cc1sc(C(c2ccc(F)cc2)c2ccc(F)cc2)nc1-c1ccnc(Cl)c1 = 80

# value of Efficacy, Prostaglandin D2 receptor 2 (Homo sapiens), item O=C(O)Cc1sc(C(c2ccccc2)c2ccc(Cl)cc2)nc1-c1ccc(F)cc1 (configuration not stated) = 80

# value of Efficacy, Prostaglandin D2 receptor 2 (Homo sapiens), item O=C(O)Cc1sc(C(c2ccccc2)c2ccc(Cl)cc2)nc1-c1ccc(Cl)cc1 (configuration not stated) = 80

# value of Efficacy, Prostaglandin D2 receptor 2 (Homo sapiens), item COc1ccc(C(c2ccccn2)c2nc(-c3ccc(Cl)cc3)c(CC(=O)O)s2)cc1 (configuration not stated) = 80

# value of Efficacy, Prostaglandin D2 receptor 2 (Homo sapiens), item O=C(O)Cc1sc(Cc2ccccc2-c2ccccc2)nc1-c1ccc(Cl)cc1 = 50

# value of Efficacy, Prostaglandin D2 receptor 2 (Homo sapiens), item O=C(O)Cc1sc(C(c2ccccc2)c2ccccc2)nc1-c1cccc(F)c1 = 80

# value of Efficacy, Prostaglandin D2 receptor 2 (Homo sapiens), item O=C(O)Cc1sc(Cc2cccc3ccccc23)nc1-c1ccc(Cl)cc1 = 30

# value of Efficacy, Prostaglandin D2 receptor 2 (Homo sapiens), item COc1ccc(OC)c(-c2nc(C(c3ccccc3)c3ccccc3)sc2CC(=O)O)c1 = 80

====

- Target under test: Prostaglandin D2 receptor 2 (Homo sapiens, UniProt Q9Y5Y4)
- Sequence (Q9Y5Y4 whole entry): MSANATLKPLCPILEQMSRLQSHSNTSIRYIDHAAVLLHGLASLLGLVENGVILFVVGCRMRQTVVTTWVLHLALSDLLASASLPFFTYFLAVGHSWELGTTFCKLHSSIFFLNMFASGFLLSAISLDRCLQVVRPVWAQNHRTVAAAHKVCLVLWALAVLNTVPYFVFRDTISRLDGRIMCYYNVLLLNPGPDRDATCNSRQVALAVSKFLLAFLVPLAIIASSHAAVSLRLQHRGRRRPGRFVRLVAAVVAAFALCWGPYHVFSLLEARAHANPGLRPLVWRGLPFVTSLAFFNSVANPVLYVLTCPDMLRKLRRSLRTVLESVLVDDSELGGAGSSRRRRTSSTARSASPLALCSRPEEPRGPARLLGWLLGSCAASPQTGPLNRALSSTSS
- Experiment summary: Antagonist activity at human CRTH2 receptor expressed in […] cells assessed as inhibition of beta arrestin translocation by bioluminescence resonance energy transfer assay
- Assay type: functional, cell-based
Measured attribute: pIC50
Reminder that pIC50 is minus the log10 of a molar concentration.

According to the records, this molecule COc1ccc(C(c2ccc(OC)cc2)c2nc(-c3ccc(F)cc3)c(CC(=O)O)s2)cc1 displays pIC50 of 7.51

According to the records, this molecule N#Cc1cccc(-c2nc(C(c3ccc(F)cc3)c3ccc(F)cc3)sc2CC(=O)O)c1 displays pIC50 of 6.66

According to the records, this molecule COc1ccc(C(c2ccccc2)c2nc(-c3ccc(Cl)cc3)c(CC(=O)O)s2)cc1 (configuration not stated) displays pIC50 of 7.12

According to the records, this molecule O=C(O)Cc1sc(C(c2ccc(F)cc2)c2ccc(F)cc2)nc1-c1ccc(Cl)cc1 displays pIC50 of 6.74

According to the records, this molecule CS(=O)(=O)Nc1cccc(-c2nc(C(c3ccc(F)cc3)c3ccc(F)cc3)sc2CC(=O)O)c1 displays pIC50 of 6.43

According to the records, this molecule O=C(O)Cc1sc(COc2ccc(Cl)cc2)nc1-c1ccc(Cl)cc1 displays pIC50 of 6.43

According to the records, this molecule O=C(O)Cc1sc(-c2ccccc2)nc1-c1ccc(Cl)cc1 displays pIC50 of 6.02

According to the records, this molecule Nc1cc(-c2nc(C(c3ccc(F)cc3)c3ccc(F)cc3)sc2CC(=O)O)ccn1 displays pIC50 of 7.19

According to the records, this molecule O=C(O)Cc1sc(C(c2ccc(F)cc2)c2ccc(F)cc2)nc1-c1cccnc1 displays pIC50 of 6.29

According to the records, this molecule O=C(O)Cc1sc(-c2ccc(Oc3ccccc3)cc2)nc1-c1ccc(Cl)cc1 displays pIC50 of 5.89

According to the records, this molecule O=C(O)Cc1sc(C(c2ccc(F)cc2)c2ccc(F)cc2)nc1-c1cc(F)nc(F)c1 displays pIC50 of 6.96

According to the records, this molecule O=C(O)Cc1sc(C(c2ccc(F)cc2)c2ccc(F)cc2)nc1-c1ccccc1 displays pIC50 of 6.62

According to the records, this molecule O=C(O)Cc1sc(C(c2ccc(F)cc2)c2ccc(F)cc2)nc1-c1cccc(F)c1 displays pIC50 of 7.74

According to the records, this molecule O=C(O)Cc1sc(C(c2ccccc2)c2ccc(O)cc2)nc1-c1ccc(F)cc1 (configuration not stated) displays pIC50 of 7.52

According to the records, this molecule O=C(O)Cc1sc(NC(=O)c2ccccc2)nc1-c1ccc(Cl)cc1 displays pIC50 of 6.06

According to the records, this molecule O=C(O)Cc1sc(C2COc3ccccc3O2)nc1-c1ccc(Cl)cc1 (configuration not stated) displays pIC50 of 5.70

According to the records, this molecule O=C(O)Cc1sc(C(c2ccc(F)cc2)c2ccc(F)cc2)nc1-c1cc[nH]c(=O)c1 displays pIC50 of 6.05

According to the records, this molecule NS(=O)(=O)c1cccc(-c2nc(C(c3ccc(F)cc3)c3ccc(F)cc3)sc2CC(=O)O)c1 displays pIC50 of 6.15
